Kindly supply the reported TGI values for the records listed here.
Test system: HCT-15 colon
protocol.description: NCI tumour cell line growth inhibition, 48 h

Problem: What measured TGI is associated with O=c1oc2ccccc2[n+]([O-])c1-c1ccccc1 on HCT-15 colon?
Result: > 100 µM

Problem: What measured TGI is associated with CCOC(=O)C(NC(=O)c1nc[nH]c1[N+](=O)[O-])C(C)C (stereo not given) on HCT-15 colon?
Result: > 100 µM

Problem: What measured TGI is associated with CN1/C(=C\C=C\C2=[N+](C)c3ccccc3C2(C)C)C(C)(C)c2ccccc21 on HCT-15 colon?
Result: 7.85 µM

Problem: What measured TGI is associated with COc1ccc(/C(=N\NC(=S)NN)C(c2ccc(OC)cc2)C2C(=O)Oc3ccccc32)cc1 (stereo not given) on HCT-15 colon?
Result: > 100 µM

Problem: What measured TGI is associated with CC(=O)c1ccc(O)c(CN(C2CCCCC2)C2CCCCC2)c1O on HCT-15 colon?
Result: > 100 µM

Problem: What measured TGI is associated with O=C(/C=C/c1ccccc1)CC(=O)CCC(=O)Nc1ccc(Cl)cc1 on HCT-15 colon?
Result: > 100 µM

Problem: What measured TGI is associated with CCC(=O)Nc1nc2c(ncn2C2OC(COC(=O)CC)C(OC(=O)CC)C2OC(=O)CC)c(=O)[nH]1 (stereo not given) on HCT-15 colon?
Result: > 100 µM

Problem: What measured TGI is associated with Cc1ccc(C2=CC(=O)/C(=C\C(=O)c3ccc(Cl)cc3)O2)cc1 on HCT-15 colon?
Result: 35.3 µM

Problem: What measured TGI is associated with NC(=O)N/N=C1\CC2C3CC4C2C4C13 (stereo not given) on HCT-15 colon?
Result: > 100 µM

Problem: What measured TGI is associated with O=c1[nH]c(Nc2cccc(CO)c2)nc2nc[nH]c12 on HCT-15 colon?
Result: > 100 µM

====

Tested on: UACC-62 melanoma
protocol.description: NCI tumour cell line growth inhibition, 48 h
attribute.measured: TGI

Problem: Record request: TGI value, item O=C1OCC2=C1C(c1ccccc1)c1cc3c(cc1N2CCO)OCO3 (stereo not drawn)
Result: > 50 µM

Problem: Record request: TGI value, item CSC(=NCCc1c[nH]c2ccccc12)NC#N
Result: > 100 µM

Problem: Record request: TGI value, item CC(=O)c1cnc2oc3ccc(O)cc3c2c1-c1ccccc1
Result: 70.4 µM

====

Test system: MALME-3M melanoma
protocol.description: NCI tumour cell line growth inhibition, 48 h
Kindly supply the reported TGI values for the records listed here.

Problem: Record request: TGI value, item O=c1c2cc(Br)ccc2nc(CCl)n1-c1ccc(O)c([N+](=O)[O-])c1
Result: 33.4 µM

Problem: Record request: TGI value, item FC(F)(F)c1cc(C2SCc3nc4ccccc4n32)cc(C(F)(F)F)c1 (stereo unspecified)
Result: > 100 µM

Problem: Record request: TGI value, item COc1ccc(/C(=N\NC(=S)NN)C(c2ccc(OC)cc2)C2C(=O)Oc3ccccc32)cc1 (stereo unspecified)
Result: > 100 µM

Problem: Record request: TGI value, item O=C1OCC2=C1C(c1ccccc1)c1cc3c(cc1N2CCO)OCO3 (stereo unspecified)
Result: > 50 µM

Problem: Record request: TGI value, item O=C(O)c1ccc(C2C(=O)N[C@@H]3CCC[C@H]23)cc1 (stereo partly specified)
Result: > 100 µM

Problem: Record request: TGI value, item CC(=O)c1cnc2oc3ccc(O)cc3c2c1-c1ccccc1
Result: 81.2 µM

Problem: Record request: TGI value, item COc1ccc(NC(=S)NC(=O)c2ccc3c(c2)Sc2ccccc2O3)c([N+](=O)[O-])c1
Result: 35.7 µM

Problem: Record request: TGI value, item CCCCCCCCCCCCCCCC[N+]1(C)CCOCC1
Result: 6.71 µM

Problem: Record request: TGI value, item C[C@]12CC[C@@H]3c4cc(I)c(O)cc4CC[C@H]3[C@@H]1CC[C@@H]2O
Result: 28.3 µM

Problem: Record request: TGI value, item CNC(=O)c1nn(C)c2c1C(C)(C)Cc1cnc(Nc3ccc(N4CCN(C)CC4)cc3)nc1-2
Result: > 9.24 µM

Problem: Record request: TGI value, item Nc1ccc(/C=C/C(=O)NCc2cc3cc(-c4ccc(C(=O)N5CCC(F)(F)CC5)cc4)cc(-c4ccc(F)cc4)c3o2)cn1
Result: > 100 µM

Problem: Record request: TGI value, item N#CNC(N)=Nc1ccc(Cl)cc1
Result: > 100 µM

Problem: Record request: TGI value, item COC(=O)C1(O)CC(=O)CCC1c1ccc(OC)cc1 (stereo unspecified)
Result: > 100 µM

Problem: Record request: TGI value, item Cc1cn(C2CC(N(C)C)C(CO)O2)c(=O)[nH]c1=O (stereo unspecified)
Result: > 100 µM

Problem: Record request: TGI value, item CCOC(=O)/C(C#N)=C\C=C(/Cl)c1ccc(Cl)cc1
Result: 40.5 µM

Problem: Record request: TGI value, item COc1cc2c(cc1Cc1c(F)cccc1Cl)nc(-c1c(F)cccc1Cl)n2Cc1c(F)cccc1Cl
Result: 79.9 µM

Problem: Record request: TGI value, item O=C(c1ccncc1)C1C(=O)c2ccccc2C1C1(O)c2ccccc2CC1C(O)c1ccncc1 (stereo unspecified)
Result: > 100 µM

Problem: Record request: TGI value, item C=C1C(=O)O[C@H]2[C@H]1CC/C(C=Nc1c(N)cc(C(F)(F)F)cc1Br)=C\CC[C@@]1(C)O[C@@H]21
Result: 3.34 µM

Problem: Record request: TGI value, item CN(C)CCC(=O)/C=C\c1ccccc1
Result: 32.8 µM

Problem: Record request: TGI value, item C=C1c2nc3ccccc3n2C=C(c2ccc(Cl)cc2)N1c1ccc(OC)cc1
Result: 13.3 µM

Problem: Record request: TGI value, item CCCCN(CCCC)C(=O)/C(CC(=O)c1cccc2ccccc12)=N\NC(=O)c1cc2ccccc2cc1O
Result: 35.4 µM
